Values compiled from paper PMC9482650.

biological target: LNX1_1, Q8TBB1; assay: holdup assay; design: key: below the threshold = too weak to quantify, mostly under pKd 3.1 to 4; conditions: plain residues with an end cap or a label only (N-terminal biotin on a linker: ado-ado)
Sequence (Q8TBB1 261-371): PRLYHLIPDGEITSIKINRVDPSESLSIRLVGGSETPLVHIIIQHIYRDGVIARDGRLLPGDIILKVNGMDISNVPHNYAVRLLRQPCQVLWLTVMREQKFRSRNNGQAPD
measurement_name: pKd
Lab note: write the figure by itself, no unit.

Below: 4 binders and their reported pKd.
YLEPVLSSEL [ATP2A2, P16615;P16615-3]
4.24
PKRSFIESNV [TANC1, Q9C0D5]
4.08
SGSLKLMTTV [DACT1, Q9NYF0]
4.04
PRISRSQSEL [CCDC134, Q9H6E4]
3.67

Quick note, pKd for EVEEFPETSV [TRPV3, Q8NET8] landed at 4.19
